Where these numbers come from: PubChem BioAssay AID1159580

protocol_text: chemical genetic growth profiling, strain panel (AID 1159580);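 further: tested at 20 µM; growth read once vehicle control cultures reached saturation at 30 °C; 1 = growth at the plate median or of vehicle wells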
conditions: S. cerevisiae deletion strains, growth OD, locus YER155C, strain BEM2 (second series)
The campaign covered roughly 5,500 compounds. About 2,000 (36%) were called active. About 18% were inconclusive and are not listed. No stated cut-off is given here; in the data, active means normalized growth mostly below about 0.91 (no sharp cut-off); inconclusive means no clear call, values can overlap the other calls; inactive means mostly above about 0.92. This is one part of the list.
Possible outcomes: active, inactive

{"columns": ["compound", "cat"],
 "data": [
  ["C[C@@H]1CC2C3C[C@H](F)C4=CC(=O)C=C[C@]4(C)[C@@]3(F)[C@@H](O)C[C@]2(C)[C@@]1(O)C(=O)COC(=O)C(C)(C)C (stereo partly specified)", "inactive"],
  ["S=P(N1CC1)(N1CC1)N1CC1", "inactive"],
  ["C=C1C2=CC(=O)O[C@@H](c3ccoc3)[C@]2(C)CCC1[C@@]1(C)C=CC(=O)C(C)(C)[C@@H]1CC(=O)OC (stereo partly specified)", "inactive"],
  ["CC12CC3CC(C)(C1)CC(N)(C3)C2", "inactive"],
  ["C=C1C2CC[C@@]3(C)[C@H](c4ccoc4)OC(=O)C[C@]13O[C@H]1CC(O)C(C)(C)C(CC(=O)OC)[C@@]21C (stereo partly specified)", "inactive"],
  ["C=C1C2CC[C@@]3(C)[C@H](c4ccoc4)OC(=O)C[C@]13O[C@H]1CC(=O)C(C)(C)C(CC(=O)OC)[C@@]21C (stereo partly specified)", "inactive"],
  ["COc1cc([C@@H]2c3cc4c(cc3[C@H](OC(C)=O)[C@H]3COC(=O)[C@@H]23)OCO4)cc(OC)c1OC", "inactive"],
  ["CNCCCN1c2ccccc2CCc2ccccc21", "inactive"],
  ["C=C1C(C2(C)C=CC(=O)C(C)(C)C2CC(=O)OC)CC[C@@]2(C)[C@H](c3ccoc3)OC(=O)C3OC132 (stereo partly specified)", "inactive"],
  ["CN1CCN(C2=Nc3ccccc3Oc3ccc(Cl)cc32)CC1", "inactive"],
  ["O=c1cc(-c2cc(O)c(O)c(O)c2)oc2cc(O)cc(O)c12", "inactive"],
  ["COc1cc([C@H]2Oc3cc([C@H]4Oc5cc(O)cc(O)c5C(=O)[C@@H]4O)ccc3O[C@@H]2CO)ccc1O", "inactive"],
  ["CC1CCC2(OC1)OC1CC3C4CCC5C[C@@H](O)CCC5(C)C4=CCC3(C)C1[C@@H]2C (stereo partly specified)", "inactive"],
  ["CN[C@@H]1[C@H](OC2[C@H](O[C@H]3[C@H](O)[C@@H](O)[C@H](N=C(N)N)[C@@H](O)[C@@H]3N=C(N)N)O[C@@H](C)[C@]2(O)C=O)O[C@@H](CO)[C@H](O)[C@H]1O (stereo partly specified)", "inactive"],
  ["CCCC(C(=O)OCCN(CC)CC)(c1ccccc1)c1ccccc1", "inactive"],
  ["N[C@H](Cc1ccccc1)C(=O)O", "inactive"],
  ["O=c1cc(-c2ccc(O)cc2)oc2cc(O)ccc12", "inactive"],
  ["CCN(CCCc1ccccc1)CCCc1ccccc1", "inactive"],
  ["Cc1cc(C)cc(OCC2CNC(=O)O2)c1 (stereo unspecified)", "inactive"],
  ["N[C@H](Cc1cc(I)c(Oc2ccc(O)c(I)c2)c(I)c1)C(=O)O", "inactive"],
  ["O=c1cc(-c2ccc(O)cc2)oc2cc(O)cc(O)c12", "inactive"],
  ["C[C@@H]1CC2C3CCC4=CC(=O)C=C[C@]4(C)[C@@]3(F)[C@@H](O)C[C@]2(C)[C@H]1C(=O)CO (stereo partly specified)", "inactive"],
  ["O=[N+]([O-])c1cccc2c(Br)[nH]nc12", "inactive"],
  ["COc1cc(C)c(C(=O)Oc2cc(C)c(C(=O)O)c(O)c2C)c(OC)c1C", "active"],
  ["CSc1ccc2c(c1)N(CCC1CCCCN1C)c1ccccc1S2 (stereo unspecified)", "inactive"],
  ["O=c1cc(-c2ccccc2)oc2cc(O)c(O)cc12", "inactive"],
  ["C[C@@H]1O[C@@H](O[C@H]2C[C@@H](O)[C@]3(CO)C4C(CC[C@]3(O)C2)[C@@]2(O)CC[C@H](C3=CC(=O)OC3)[C@@]2(C)C[C@H]4O)[C@H](O)[C@H](O)[C@H]1O (stereo partly specified)", "inactive"],
  ["CCN(CC)CCOC(=O)C(c1ccccc1)c1ccccc1", "inactive"],
  ["O=c1[nH]cnc2[nH]ncc12", "inactive"],
  ["O=c1cc(-c2ccccc2)oc2c(O)c(O)ccc12", "inactive"],
  ["NC(Cc1ccc(F)cc1)C(=O)O (stereo unspecified)", "inactive"],
  ["CCOC(=O)[C@H](CCc1ccccc1)N[C@@H](C)C(=O)N1Cc2ccccc2C[C@H]1C(=O)O", "inactive"],
  ["O=c1cc(-c2ccccc2)oc2cccc(O)c12", "active"],
  ["CC(=O)Nc1ccccc1", "inactive"],
  ["Cc1cc(=O)oc2c(O)c(O)ccc12", "inactive"],
  ["CC(=O)N=c1sc(S(N)(=O)=O)nn1C", "inactive"],
  ["C=C1C2CCC3(C)C(c4ccoc4)OC(=O)CC13OC1CC(OC(C)=O)C(C)(C)C(CC(=O)OC)C12C (stereo unspecified)", "inactive"],
  ["COc1ccc(C(=O)N2CCCC2=O)cc1", "inactive"],
  ["CC1(C)C(O)CC(O)C2(C)C1CC(O)C1(C)C2CCC2(C)C(c3ccoc3)OC(=O)C3OC321 (stereo unspecified)", "inactive"],
  ["O=C(Nc1ccccc1)Nc1ccccc1", "inactive"],
  ["COc1cc(S(C)=O)ccc1-c1nc2ncccc2[nH]1 (stereo unspecified)", "inactive"]
]}

----------
The reader will find reported normalized growth values listed item by item below.
protocol_text: chemical genetic growth profiling, strain panel (AID 1159580);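 further: tested at 20 µM; growth read once vehicle control cultures reached saturation at 30 °C; 1 = growth at the plate median or of vehicle wells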
conditions: S. cerevisiae deletion strains, growth OD, locus YOL078W, strain AVO1, stronger effect = lower value
Out of some 5,500 compounds screened, about 2,000 (36%) were called active. Not shown: some 18% with an inconclusive outcome. The list shows a part of the results.
property_name: normalized growth

{"columns": ["molecule", "property_name", "result"],
 "data": [
  ["CS(=O)(=O)c1sc(C(=O)Sc2ccc(Cl)cc2)c2c1C=CCC2", "normalized growth", 0.839],
  ["O=[N+]([O-])c1ccc(-c2csc(Nc3ccncc3)n2)cc1", "normalized growth", 0.986],
  ["COc1ccc(C(=O)NCc2csc3ccc(Cl)cc23)cc1OC", "normalized growth", 0.977],
  ["COc1cc(CC/C(C)=N/O)ccc1OCc1ccc(Cl)cc1Cl", "normalized growth", 0.983],
  ["CNC(=O)n1nc(C)c(Cc2csc3ccc(Cl)cc23)c1C", "normalized growth", 0.991],
  ["Cc1nn(Cc2nnc(SCc3cccc(C(F)(F)F)c3)o2)c(C)c1Br", "normalized growth", 0.967],
  ["Cc1ccc(N2C(=O)CSC2c2ccc(Cl)c(Cl)c2)cc1Cl (stereo not given)", "normalized growth", 0.982],
  ["CS(=O)(=O)/C(C#N)=C/c1ccccc1OCc1c(Cl)cccc1Cl", "normalized growth", 0.962],
  ["Oc1ccc(N=Nc2ccccn2)c(O)c1", "normalized growth", 0.0959],
  ["S=C(Nc1cc(Cl)c(Cl)cc1Cl)Nc1ccccc1Br", "normalized growth", 0.962],
  ["O=S(=O)(Nc1ccc(Oc2ccc(OC(F)(F)F)cc2)cc1)c1cccc(Cl)c1", "normalized growth", 0.991],
  ["CC1C/C(=N/Nc2ccc(Br)cc2)c2cc(Cl)ccc2S1(=O)=O (stereo not given)", "normalized growth", 0.99],
  ["O=C1CSC(c2ccc(C(F)(F)F)cc2)N1c1ccc(C(F)(F)F)cc1 (stereo not given)", "normalized growth", 1.01],
  ["O=C(Nc1ccc(F)c(Cl)c1)c1ccccc1O", "normalized growth", 0.897],
  ["COc1ccc(CC2CCC(=NOC(=O)c3ccc(C(C)(C)C)cc3)CC2)cc1 (stereo not given)", "normalized growth", 0.988],
  ["O=C(CCn1c(=O)oc2ccccc21)Sc1ccc(C(F)(F)F)cc1", "normalized growth", 0.951],
  ["O=C1/C(=C/c2ccc(C(F)(F)F)cc2)COc2ccccc21", "normalized growth", 0.931],
  ["Cc1onc(-c2ccccc2)c1C(=O)Sc1ccc(C(F)(F)F)cn1", "normalized growth", 0.948],
  ["NNC(=O)c1csc(Cc2c(Cl)sc3ccc(Cl)cc23)n1", "normalized growth", 0.976],
  ["Cc1c(S(=O)(=O)c2ccc(Cl)cc2)csc1C(=O)NNc1cccc(Cl)c1", "normalized growth", 0.965]
]}

----------
protocol_text: chemical genetic growth profiling, strain panel (AID 1159580);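 further: tested at 20 µM; growth read once vehicle control cultures reached saturation at 30 °C; 1 = growth at the plate median or of vehicle wells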
conditions: S. cerevisiae deletion strains, growth OD, locus YGL240W, strain doc1, stronger effect = lower value
The campaign covered roughly 5,500 compounds. About 2,000 (36%) were called active. About 18% were inconclusive and are not listed. This is one part of the list.

{"columns": ["molecule", "normalized growth"],
 "data": [
  ["CCCCCC1C(=O)CCC1CC(=O)O (stereo not drawn)", 0.998],
  ["NC(N)=O", 1.03],
  ["CN(CCC(N)CC(=O)N[C@H]1C=CC(n2ccc(N)nc2=O)O[C@@H]1C(=O)O)C(=N)N (stereo partly drawn)", 0.31],
  ["Nc1ccncc1", 1],
  ["Nc1ccn(C2O[C@H](CO)[C@@H](O)[C@H]2O)c(=O)n1 (stereo partly drawn)", 1.01],
  ["O=c1[nH]cnc2[nH]ncc12", 1.04],
  ["O=C(Nc1ccccc1)Nc1ccccc1", 0.915],
  ["O=c1cc(-c2ccccc2)oc2cc(O)c(O)cc12", 0.943],
  ["Nc1cc(-c2ccncc2)c[nH]c1=O", 0.684],
  ["O=C(O)CCC(=O)Nc1ccc(S(=O)(=O)Nc2nccs2)cc1", 1],
  ["NS(=O)(=O)c1cc2c(cc1Cl)NC(C1CC3C=CC1C3)NS2(=O)=O (stereo not drawn)", 0.977],
  ["CC(=O)Nc1ccccc1", 0.965],
  ["O=c1cc(-c2ccc(O)cc2)oc2cc(O)ccc12", 0.958]
]}
